Data credit: patent US20260055126A1

Assay: In vitro liver microsome stability, mouse
Assay type: in vitro ADME
Conditions: mouse liver microsomes
PROPERTY: mouse half-life (h)
Write the value in h as a bare number.

CP(C)(=O)c1ccc(Nc2ccc(C(F)(F)F)cc2)c(-c2nccc(N3CC[C@H](O)C3)n2)c1 | 1.43
Cn1cnc(-c2cc(P3(=O)CCNCC3)ccc2Nc2ccc(C(F)(F)F)cc2)c1 | 1.56

Entry CP(C)(=O)c1ccc(NCc2ccc(C(F)(F)F)cc2)c(-c2nccc(OC3COC3)n2)c1 ; mouse half-life = 0.565

====

Target: recombinant TEAD2 protein (218-447, Uniprot ID: Q15562) (Homo sapiens (Human))
Sequence (Q15562 218-447): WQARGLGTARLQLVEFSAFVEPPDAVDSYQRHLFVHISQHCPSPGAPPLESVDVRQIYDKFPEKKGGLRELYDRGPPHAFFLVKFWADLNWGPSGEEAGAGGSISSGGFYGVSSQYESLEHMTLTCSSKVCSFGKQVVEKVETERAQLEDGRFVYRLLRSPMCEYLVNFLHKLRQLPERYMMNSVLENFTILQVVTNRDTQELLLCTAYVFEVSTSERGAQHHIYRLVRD
Test: Thermal shift assay (protein melting point curve), TEAD2
Type: binding
Conditions: 10 μM TEAD protein, 50 μM test compound
PROPERTY: Δ T m (TEAD2)

CP(C)(=O)c1ccc(Nc2ccc(C(F)(F)F)cc2)c(-c2nc(OC3COC3)cs2)c1 [Compound 7] | ++
CP(C)(=O)c1ccc(NCc2ccc(C(F)(F)F)cc2)c(-c2nccc(N3CCC(O)C3)n2)c1 (stereo not shown) [Compound 54] | +
CP(C)(=O)c1ccc(Nc2ccc(C(F)(F)F)cc2)c(-c2nccc(N3CC[C@H](O)C3)n2)c1 [Compound 9] | ++
Cn1cnc(-c2cc(P(C)(C)=O)ccc2NC2CCC(C(F)(F)F)CC2)c1 (stereo not shown) [Compound 63] | +++
CP(C)(=O)c1ccc(Nc2ccc(C(F)(F)F)cc2)c(-c2cnn(CC3COC3)c2)c1 [Compound 16] | ++

Record CP(C)(=O)c1ccc(Nc2ccc(C(F)(F)F)cc2)c(-n2cc(C3CCOCC3)cn2)c1 [Compound 33] has recombinant TEAD2 protein (218-447, Uniprot ID: Q15562) (Homo sapiens (Human)) Δ T m (TEAD2) equal to +

Record CP(C)(=O)c1ccc(NC2CCc3cc(C(F)(F)F)ccc32)c(-c2ncccn2)c1 (stereo not shown) [Compound 42] has recombinant TEAD2 protein (218-447, Uniprot ID: Q15562) (Homo sapiens (Human)) Δ T m (TEAD2) equal to ++

Record CP(C)(=O)c1ccc(Nc2ccc(C(F)(F)F)cc2)c(-c2cn(Cc3ccccn3)cn2)c1 [Compound 2] has recombinant TEAD2 protein (218-447, Uniprot ID: Q15562) (Homo sapiens (Human)) Δ T m (TEAD2) equal to +

Record CP(C)(=O)c1ccc(Nc2ccc(C(F)(F)F)cc2)c(-c2cn(C3COC3)nn2)c1 [Compound 41] has recombinant TEAD2 protein (218-447, Uniprot ID: Q15562) (Homo sapiens (Human)) Δ T m (TEAD2) equal to +++

Record COCc1cccn(-c2cc(P(C)(C)=O)ccc2Nc2ccc(C(F)(F)F)cc2)c1=O [Compound 48] has recombinant TEAD2 protein (218-447, Uniprot ID: Q15562) (Homo sapiens (Human)) Δ T m (TEAD2) equal to +

Record Cc1nc(-c2cc(P(C)(C)=O)ccc2NCc2cccc(C(F)(F)F)c2)no1 [Compound 49] has recombinant TEAD2 protein (218-447, Uniprot ID: Q15562) (Homo sapiens (Human)) Δ T m (TEAD2) equal to +

Record CP(C)(=O)c1ccc(Nc2cccc(C(F)(F)F)c2)c(-c2nccc(OC3COC3)n2)c1 [Compound 13] has recombinant TEAD2 protein (218-447, Uniprot ID: Q15562) (Homo sapiens (Human)) Δ T m (TEAD2) equal to +

Record CP(C)(=O)c1ccc(Nc2ccc(C(F)(F)F)cc2)c(-c2nnc(NCCO)o2)c1 [Compound 12] has recombinant TEAD2 protein (218-447, Uniprot ID: Q15562) (Homo sapiens (Human)) Δ T m (TEAD2) equal to +

Record CP(C)(=O)c1ccc(NC23CCC(CC2)CC3)c(-c2nccc(OC3COC3)n2)c1 [Compound 38] has recombinant TEAD2 protein (218-447, Uniprot ID: Q15562) (Homo sapiens (Human)) Δ T m (TEAD2) equal to +

Record CP(C)(=O)c1ccc(Nc2ccc(C(F)(F)F)cc2)c(-c2cnn(C3COC3)c2)c1 [Compound 15] has recombinant TEAD2 protein (218-447, Uniprot ID: Q15562) (Homo sapiens (Human)) Δ T m (TEAD2) equal to ++

Record O=P1(c2ccc(Nc3ccc(C(F)(F)F)cc3)c(-c3ncccn3)c2)CC(CO)C1 (stereo not shown) [Compound 21] has recombinant TEAD2 protein (218-447, Uniprot ID: Q15562) (Homo sapiens (Human)) Δ T m (TEAD2) equal to ++++

====

Assay: Mouse plasma pharmacokinetic test
Assay type: in vivo, CD-1 mice
Details: CD-1, mouse, plasma; VT103 in mice, IV
Description: In this example, different compounds are used to perform a mouse pharmacokinetic experiment, and the specific steps are as follows: Animal information: CD-1 mice, male, about 20 g, purchase from Beijing Weitonglihua Experimental Animal Technology Co., Ltd. Animal dietary status: Animals are not fasted before administration and allowed to drink water freely. […]
PROPERTY: clearance (L/h/kg)
Write the value in L/h/kg as a bare number.

Entry CNS(=O)(=O)c1ccc(Nc2ccc(C(F)(F)F)cc2)c(-c2cn(C)cn2)c1 [VT103, reference compound] ; clearance = 0.282

====

Target: recombinant TEAD3 protein (218-435, Uniprot ID: Q99594) (Homo sapiens (Human), UniProt Q99594)
Sequence (Q99594 218-435): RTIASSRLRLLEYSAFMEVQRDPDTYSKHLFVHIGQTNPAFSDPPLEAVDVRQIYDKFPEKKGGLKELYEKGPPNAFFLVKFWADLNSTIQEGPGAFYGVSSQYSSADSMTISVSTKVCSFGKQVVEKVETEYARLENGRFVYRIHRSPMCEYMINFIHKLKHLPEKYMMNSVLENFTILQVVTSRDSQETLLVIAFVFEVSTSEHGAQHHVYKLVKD
Assay: Thermal shift assay (protein melting point curve), TEAD3
Format: binding
Details: 10 μM TEAD protein, 50 μM test compound
Experimental: The ability of the compounds to increase the melting point of purified recombinant TEAD1/2/3/4 proteins is tested using a thermal shift assay. The strength of the compound's binding to the protein and the selectivity of the compound's binding to the four TEAD subtypes are evaluated by calculating the melting point shift ΔTm−° C. […] Based on the Δ Tm value, the ability of the compound to bind to the TEAD protein is divided into four levels: ++++, +++, ++, +. […]
PROPERTY: Δ T m (TEAD3)

CP(C)(=O)c1ccc(NCc2ccc(C(F)(F)F)cc2)c(-c2cn(C3COC3)cn2)c1 | ++
CP(C)(=O)c1ccc(Nc2ccc(C(F)(F)F)cc2)c(-c2nnc(CO)o2)c1 | +
Cc1nc(-c2cc(P(C)(C)=O)ccc2NCc2cccc(C(F)(F)F)c2)no1 | ++
COCc1cccn(-c2cc(P(C)(C)=O)ccc2Nc2ccc(C(F)(F)F)cc2)c1=O | +
Cc1nnc(-c2cc(P(C)(C)=O)ccc2NCc2ccc(C(F)(F)F)cc2)o1 | ++
CP(C)(=O)c1ccc(Nc2ccc(C(F)(F)F)cc2)c(-c2nc(OC3COC3)cs2)c1 | ++
CCP(=O)(CC)c1ccc(Nc2ccc(C(F)(F)F)cc2)c(-c2nccc(OC3COC3)n2)c1 | +

Pending compound:
Entry CP(C)(=O)c1ccc(NCC2CCC(C(F)(F)F)CC2)c(-c2ncccn2)c1 (centres unmarked) ; Δ T m (TEAD3) = ++

====

Molecular target: recombinant TEAD3 protein (218-435, Uniprot ID: Q99594) (Homo sapiens (Human), UniProt Q99594)
Experiment: Thermal shift assay (protein melting point curve), TEAD3
Format: binding
Conditions: 10 μM TEAD protein, 50 μM test compound
PROPERTY: Δ T m (TEAD3)

Guide cases for Δ T m (TEAD3), answers given:
CP(C)(=O)c1ccc(NCc2ccc(C(F)(F)F)cc2)c(-n2cc(C3CCOCC3)cn2)c1 | +
CP(C)(=O)c1ccc(Nc2ccc(C(F)(F)F)cc2)c(-c2ncn(C3CCOCC3)n2)c1 | +
CP(C)(=O)c1ccc(Nc2ccc(C(F)(F)F)cc2)c(-c2cnn(C3CCOCC3)c2)c1 | ++
CP(C)(=O)c1ccc(Nc2ccc(C(F)(F)F)cc2)c(-c2cn(Cc3ccccn3)cn2)c1 | ++
CCP(=O)(CC)c1ccc(Nc2ccc(C(F)(F)F)cc2)c(-c2cn(C)cn2)c1 | +++

Entry CP(C)(=O)c1ccc(NCc2ccc(C(F)(F)F)cc2)c(-c2nccc(OC3COC3)n2)c1 ; Δ T m (TEAD3) = +

Entry CP(C)(=O)c1ccc(NC23CCC(CC2)CC3)c(-c2nccc(OC3COC3)n2)c1 ; Δ T m (TEAD3) = +

Entry CC1OCCC1S(=O)(=O)c1csc(-c2cc(P(C)(C)=O)ccc2Nc2ccc(C(F)(F)F)cc2)n1 (centres unmarked) ; Δ T m (TEAD3) = +

====

Biological target: recombinant TEAD2 protein central pocket (Homo sapiens (Human), UniProt Q15562)
Sequence (Q15562 whole entry): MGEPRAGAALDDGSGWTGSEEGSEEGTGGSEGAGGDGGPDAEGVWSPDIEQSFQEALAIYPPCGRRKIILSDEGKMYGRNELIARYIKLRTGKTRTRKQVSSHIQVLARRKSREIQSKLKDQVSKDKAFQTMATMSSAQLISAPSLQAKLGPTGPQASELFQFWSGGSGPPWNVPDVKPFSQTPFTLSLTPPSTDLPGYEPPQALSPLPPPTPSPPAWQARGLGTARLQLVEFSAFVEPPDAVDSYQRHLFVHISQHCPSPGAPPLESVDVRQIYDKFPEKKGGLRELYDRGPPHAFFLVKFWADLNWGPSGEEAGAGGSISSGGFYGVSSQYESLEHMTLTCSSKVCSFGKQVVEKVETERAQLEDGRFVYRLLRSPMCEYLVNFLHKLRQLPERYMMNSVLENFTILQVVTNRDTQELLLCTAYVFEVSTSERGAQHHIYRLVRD
Assay: Competitive thiol binding assay (CPM assay), TEAD2
Conditions: 150 nM recombinant TEAD protein, 150 nM CPM
Reported pIC50 values for a set of molecules
Here pIC50 is given on a logarithmic scale as minus log10 of the concentration in mol/L.

Guide cases for pIC50, answers given:
CNS(=O)(=O)c1ccc(Nc2ccc(C(F)(F)F)cc2)c(-c2cn(C)cn2)c1 [VT103, reference compound] | 6.06
O=P1(c2ccc(Nc3ccc(C(F)(F)F)cc3)c(-c3ncccn3)c2)CC(CO)C1 (stereo not drawn) | 6.51

Record CCP(=O)(CC)c1ccc(Nc2ccc(C(F)(F)F)cc2)c(-c2cn(C)cn2)c1 has recombinant TEAD2 protein central pocket (Homo sapiens (Human), UniProt Q15562) pIC50 equal to 6.28
